method_notes: Solubility of p-hydroxyphenylglycine o-toluenesulfonate in water (Table 3)
Format: physicochemical
condition_description: 20° C.
solubility: recorded values
Report the figure in mg/mL without appending any unit label.

Take a look at these entries with their results.
{"columns": ["compound", "solubility (mg/mL)"],
 "data": [
  ["NC(C(=O)O)c1ccc(O)cc1 (racemic)", 123],
  ["N[C@@H](C(=O)O)c1ccc(O)cc1 [p-hydroxyphenylglycine o-toluenesulfonate, D-enantiomer]", 77]
]}

Query block: Which solubility is reported for this compound? N[C@H](C(=O)O)c1ccc(O)cc1 [p-hydroxyphenylglycine o-toluenesulfonate, L-enantiomer]
Result block: 77

* * *

method_notes: Solubility of p-hydroxyphenylglycine o-toluenesulfonate in water (Table 3)
Format: physicochemical
condition_description: 40° C.
property: solubility (mg/mL)
Report the figure in mg/mL without appending any unit label.

Take a look at these entries with their results.
{"columns": ["compound", "unit_spec", "solubility"],
 "data": [
  ["N[C@@H](C(=O)O)c1ccc(O)cc1 [p-hydroxyphenylglycine o-toluenesulfonate, D-enantiomer]", "mg/mL", 122],
  ["NC(C(=O)O)c1ccc(O)cc1 (racemic)", "mg/mL", 210]
]}

Proceeding to the next compound to report its solubility.
Query block: Which solubility is reported for this compound? N[C@H](C(=O)O)c1ccc(O)cc1 [p-hydroxyphenylglycine o-toluenesulfonate, L-enantiomer]
Result block: 122
